tested system: T1, human amylin 3(a) receptor (human calcitonin receptor + RAMP-3) (human, UniProt P30988 25-474; O60896 24-148)
T1 sequence (looked up) 1: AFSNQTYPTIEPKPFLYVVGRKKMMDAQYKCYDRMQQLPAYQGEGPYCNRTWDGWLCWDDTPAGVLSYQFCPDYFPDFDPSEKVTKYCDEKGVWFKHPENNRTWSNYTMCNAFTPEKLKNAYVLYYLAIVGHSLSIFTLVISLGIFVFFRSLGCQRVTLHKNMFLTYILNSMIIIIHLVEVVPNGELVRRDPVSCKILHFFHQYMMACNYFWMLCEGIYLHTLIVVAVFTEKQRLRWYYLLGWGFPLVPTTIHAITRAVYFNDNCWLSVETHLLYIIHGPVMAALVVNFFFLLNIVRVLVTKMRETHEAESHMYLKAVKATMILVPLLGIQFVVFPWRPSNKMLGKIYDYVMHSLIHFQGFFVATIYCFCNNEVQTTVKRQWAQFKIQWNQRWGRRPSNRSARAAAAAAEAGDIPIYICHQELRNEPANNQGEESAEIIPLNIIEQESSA
T1 sequence (looked up) 2: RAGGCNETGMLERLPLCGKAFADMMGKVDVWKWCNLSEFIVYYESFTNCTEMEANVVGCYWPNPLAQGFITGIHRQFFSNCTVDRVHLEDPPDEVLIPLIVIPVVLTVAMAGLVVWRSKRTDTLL
assay remarks: cell-based or functional assay
Starred links: 1 amine or outer side, 2 acyl side, 3 side chain; linkers in the order of their positions; H or OH if unused. Positions of bridges follow the written chain, without caps; N, C: chain ends. Groups on a side chain read outwards from the residue. Primed or numbered codes have the meaning given here. No end group written: not given here. C18 diacid′ = 17-carboxyheptadecanoyl on γGlu amine: (S)-4-carboxy-4-(17-carboxyheptadecanoylamino)butyryl; 19‑carboxyheptadecanoyl = not defined here; γGlu = O=C(O)[C@H](CCC(=O)[*:2])N[*:1]; AEEA = NCCOCCOCC(=O)O
Listing: Amylin receptor human EC50 of selected binders
readout name: Amylin receptor human EC50

binder	measured value
{19‑carboxyheptadecanoyl-γGlu-AEEA-AEEA}-HCNTATCATQRLAEFLHRATQELGPILPPTNVGSNTY-NH2 (disulfide 2-7; reading uncertain; also: printed as N-alpha-[2-(2-{2-[2-(2-{2-[(S)-4-Carboxy-4-(19-carboxyheptadecanoylamino)butyrylamino]ethoxy}ethoxy)acetylamino]ethoxy}ethoxy)acetyl]-[His1,Glu14,His17,Arg18,Ala19,Thr20,Gln21,Glu22,Leu23]-pramlintide)	0.385 nM
KCNTATCATQRLANFLHHSSHNFGK([AEEA-AEEA-γGlu-19‑carboxyheptadecanoyl])ILSSTNVGSHTY-NH2 (disulfide 2-7)	0.39 nM
{C18 diacid′-γGlu}-EKCNTATCATQRLAEFLRHSSNNFGPILPPTNVGSHTY-NH2 (disulfide 3-8) [N-alpha-[(S)-4-Carboxy-4-(17-carboxyheptadecanoylamino)butyryl]-Glu-[Glu14,Arg17,His35]-pramlintide]	0.172 nM
